# EXPERIMENT NOTES: AUC (0 to infinity) in CD1 mouse plasma at 316 umol/kg, ip
# Assay type: ADME, organism-based
# Parameters: dose 316 umol/kg, time infinity, route intraperitoneal
PROPERTY: AUC(0-inf) (µM·h)

>>> meas_value("CCc1n[n+]([O-])c2cc(OCCCN3CCOCC3)ccc2[n+]1[O-]")
33

----------
# Test system: HT-29
# EXPERIMENT NOTES: Diffusion coefficient, D in aerobic HT29 multicellular layers
# Format: ADME, cell-based
# CONDITION NOTES: human
PROPERTY: D

>>> meas_value("COCCCc1n[n+]([O-])c2ccccc2[n+]1[O-]")
"21.3 10^-7cm2/sec"
>>> meas_value("[O-][n+]1nc(CCO)[n+]([O-])c2ccccc21")
"4.41 10^-7cm2/sec"
>>> meas_value("CCc1n[n+]([O-])c2ccc(OCCCN3CCOCC3)cc2[n+]1[O-]")
"7.48 10^-7cm2/sec"
>>> meas_value("COCCc1n[n+]([O-])c2ccccc2[n+]1[O-]")
"20.89 10^-7cm2/sec"
>>> meas_value("[O-][n+]1nc(CCCO)[n+]([O-])c2ccccc21")
"4.94 10^-7cm2/sec"
>>> meas_value("[O-][n+]1nc(CCCN2CCOCC2)[n+]([O-])c2ccccc21")
"7.47 10^-7cm2/sec"
>>> meas_value("Cc1n[n+]([O-])c2ccccc2[n+]1[O-]")
"19.15 10^-7cm2/sec"
>>> meas_value("[O-][n+]1nc(CCCN2CCCCC2)[n+]([O-])c2ccccc21")
"6.5 10^-7cm2/sec"
>>> meas_value("COCCc1n[n+]([O-])c2ccc(C)cc2[n+]1[O-]")
"17.34 10^-7cm2/sec"
>>> meas_value("CCc1n[n+]([O-])c2ccccc2[n+]1[O-]")
"26.12 10^-7cm2/sec"
